molecular target: Bcl-xL, Q07817; test: peptide SPOT array, c-Myc-tagged receptor at 1 uM or 100 nM, anti-c-Myc-Cy3
Sequence (Q07817 1-209): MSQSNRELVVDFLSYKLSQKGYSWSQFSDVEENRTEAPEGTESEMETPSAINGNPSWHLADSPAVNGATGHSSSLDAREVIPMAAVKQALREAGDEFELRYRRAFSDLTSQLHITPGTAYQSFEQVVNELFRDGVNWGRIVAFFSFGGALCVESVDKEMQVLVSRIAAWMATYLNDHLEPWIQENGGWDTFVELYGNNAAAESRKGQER
parameter: SPOT signal as a fraction of Bim BH3's signal on the same receptor and array

>  <binder>
NNNMDVESRTMATMLDTLASRGLLDA [SEC16A]

>  <endpoint-value>
0.04

$$$$
>  <binder>
KSRLVQQSKALKELLDELQERCQRPA [TRIM58]

>  <endpoint-value>
0.11

$$$$
>  <binder>
SQDVERFCRQLSSMASKLIISPFTLV [ABCD4]

>  <endpoint-value>
0.05

$$$$
>  <binder>
EVRSSQFARKLWRSSRRISQVSSGET [NBEAL2]

>  <endpoint-value>
0.86

$$$$

I. CALLGSTGERICLAGDSAGGNLCFTV [LIPE]
II. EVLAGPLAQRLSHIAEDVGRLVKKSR [ARHGAP4]
Query: Which of the two items, I and II , has the greater recorded SPOT signal as a fraction of Bim BH3's signal on the same receptor and array? Indicate which entry you chose by stating its label.
Response: II
